Please respond with reported activation at 1 µM for every item in the list.
- EXPERIMENTAL TARGET: NMDA receptor (GRIN1/GRIN2A subunits) (Homo sapiens, UniProt Q05586+Q12879)
- Construct: expressed in transfected cells
- Sequence (Q12879 23-1464, other chains not shown): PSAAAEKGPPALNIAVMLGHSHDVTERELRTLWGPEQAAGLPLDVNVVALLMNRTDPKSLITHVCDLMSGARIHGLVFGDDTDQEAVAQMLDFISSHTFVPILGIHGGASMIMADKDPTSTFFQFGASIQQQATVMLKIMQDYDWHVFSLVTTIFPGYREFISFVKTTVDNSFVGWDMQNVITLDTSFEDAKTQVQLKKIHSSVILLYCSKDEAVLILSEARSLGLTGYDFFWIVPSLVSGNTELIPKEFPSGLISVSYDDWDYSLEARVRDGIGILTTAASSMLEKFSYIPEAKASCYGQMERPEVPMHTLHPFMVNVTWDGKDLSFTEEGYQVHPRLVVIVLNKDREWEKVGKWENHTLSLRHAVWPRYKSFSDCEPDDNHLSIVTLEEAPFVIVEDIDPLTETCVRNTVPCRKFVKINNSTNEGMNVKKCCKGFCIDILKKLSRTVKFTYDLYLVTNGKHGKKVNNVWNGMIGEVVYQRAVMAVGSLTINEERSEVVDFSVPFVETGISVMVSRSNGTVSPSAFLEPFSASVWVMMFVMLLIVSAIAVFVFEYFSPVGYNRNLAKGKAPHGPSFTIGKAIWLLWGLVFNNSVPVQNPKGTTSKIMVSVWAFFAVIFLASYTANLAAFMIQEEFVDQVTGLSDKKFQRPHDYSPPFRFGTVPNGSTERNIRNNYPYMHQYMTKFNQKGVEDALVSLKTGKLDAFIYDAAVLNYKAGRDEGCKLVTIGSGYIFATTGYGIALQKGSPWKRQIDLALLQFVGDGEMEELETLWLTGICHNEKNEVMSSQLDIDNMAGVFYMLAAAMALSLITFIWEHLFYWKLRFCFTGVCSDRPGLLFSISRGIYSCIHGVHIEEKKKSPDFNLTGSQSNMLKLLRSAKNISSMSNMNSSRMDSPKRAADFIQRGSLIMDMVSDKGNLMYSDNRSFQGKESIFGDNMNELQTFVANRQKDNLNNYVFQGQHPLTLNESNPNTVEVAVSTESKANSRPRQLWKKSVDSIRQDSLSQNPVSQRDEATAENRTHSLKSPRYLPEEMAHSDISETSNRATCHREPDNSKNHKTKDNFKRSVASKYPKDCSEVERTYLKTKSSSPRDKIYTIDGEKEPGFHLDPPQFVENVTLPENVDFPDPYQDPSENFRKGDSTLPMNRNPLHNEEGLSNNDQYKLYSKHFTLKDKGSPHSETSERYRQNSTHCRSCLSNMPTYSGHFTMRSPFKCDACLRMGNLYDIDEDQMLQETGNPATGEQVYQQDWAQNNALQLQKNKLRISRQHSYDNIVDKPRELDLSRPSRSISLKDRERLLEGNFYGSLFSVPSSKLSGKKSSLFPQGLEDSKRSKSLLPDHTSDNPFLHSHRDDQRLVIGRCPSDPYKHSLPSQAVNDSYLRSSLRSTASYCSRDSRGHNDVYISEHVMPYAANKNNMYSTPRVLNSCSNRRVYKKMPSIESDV
- METHOD SUMMARY: NMDA potentiation, whole-cell patch clamp of HEK cells expressing NMDA receptor
- Format: cell-based
- APPLIED CONDITIONS: HEK293, 1 uM compound; HEK cells; 30 μM NMDA and 5.0 μM Glycine; read-out: NMDA 1a2A (%) Potentiation 1 uM

Prompt: Returns the measured activation at 1 µM for the input molecule. Input: CCCCC(C)(O)CC[C@@H](C)[C@H]1CC[C@H]2[C@@H]3CC=C4C[C@@](C)(O)CC[C@]4(C)[C@H]3CC[C@]12C (some centres unmarked) [Compound 7-2]
Response: 75 to 150%

Prompt: Returns the measured activation at 1 µM for the input molecule. Input: C[C@H](CCC(C)(O)C1CC1)[C@H]1CC[C@H]2[C@@H]3CC=C4C[C@@](C)(O)CC[C@]4(C)[C@H]3CC[C@]12C (some centres unmarked) [Compound 9-2]
Response: 150 to 250%

Prompt: Returns the measured activation at 1 µM for the input molecule. Input: CC(O)CCC(C)[C@H]1CC[C@H]2[C@@H]3CC=C4C[C@@H](O)CC[C@]4(C)[C@H]3CC[C@]12C (some centres unmarked) [Comparison compound 1, reference compound]
Response: 75 to 150%

Prompt: Returns the measured activation at 1 µM for the input molecule. Input: C[C@H](CCC(O)C(F)(F)F)[C@H]1CC[C@H]2[C@@H]3CC=C4C[C@@](C)(O)CC[C@]4(C)[C@H]3CC[C@]12C (some centres unmarked) [Compound 1-11]
Response: 150 to 250%

Prompt: Returns the measured activation at 1 µM for the input molecule. Input: C[C@H](CC[C@H](O)C(F)(F)F)[C@H]1CC[C@H]2[C@@H]3CC=C4C[C@@](C)(O)CC[C@]4(C)[C@H]3CC[C@]12C [Compound 1-15]
Response: 150 to 250%

---

Please respond with reported activation at 1 µM for every item in the list.
- EXPERIMENTAL TARGET: NMDA receptor (GRIN1/GRIN2A subunits) (Homo sapiens, UniProt Q05586+Q12879)
- Construct: expressed in transfected cells
- METHOD SUMMARY: NMDA potentiation, whole-cell patch clamp of HEK cells expressing NMDA receptor
- Type: cell-based
- APPLIED CONDITIONS: HEK293, 1 uM compound; HEK cells; 30 μM NMDA and 5.0 μM Glycine; read-out: NMDA 1a2A (%) Potentiation 1 uM

Prompt: Returns the measured activation at 1 µM for the input molecule. Input: CC(CCC(C)(C)O)[C@H]1CC[C@H]2[C@@H]3CC=C4C[C@@](C)(O)CC[C@]4(C)[C@H]3CC[C@]12C (stereo partly drawn) [Comparison compound 2, reference compound]
Response: > 250%

Prompt: Returns the measured activation at 1 µM for the input molecule. Input: C=CCC(C)(O)CC[C@@H](C)[C@H]1CC[C@H]2[C@@H]3CC=C4C[C@@](C)(O)CC[C@]4(C)[C@H]3CC[C@]12C (stereo partly drawn)
Response: 150 to 250%

Prompt: Returns the measured activation at 1 µM for the input molecule. Input: C[C@H](CCC(O)C(F)(F)F)[C@H]1CC[C@H]2[C@@H]3CC[C@H]4C[C@@](C)(O)CC[C@]4(C)[C@H]3CC[C@]12C (stereo partly drawn)
Response: 75 to 150%

Prompt: Returns the measured activation at 1 µM for the input molecule. Input: CCCC(C)(O)CC[C@@H](C)[C@H]1CC[C@H]2[C@@H]3CC=C4C[C@@](C)(O)CC[C@]4(C)[C@H]3CC[C@]12C (stereo partly drawn)
Response: 150 to 250%

Prompt: Returns the measured activation at 1 µM for the input molecule. Input: CC(C)C(C)(O)CC[C@@H](C)[C@H]1CC[C@H]2[C@@H]3CC=C4C[C@@](C)(O)CC[C@]4(C)[C@H]3CC[C@]12C (stereo partly drawn)
Response: 150 to 250%

Prompt: Returns the measured activation at 1 µM for the input molecule. Input: C[C@H](CC[C@@H](O)C(F)(F)F)[C@H]1CC[C@H]2[C@@H]3CC=C4C[C@@](C)(O)CC[C@]4(C)[C@H]3CC[C@]12C
Response: 150 to 250%

Prompt: Returns the measured activation at 1 µM for the input molecule. Input: CCCC(C)(O)CC[C@@H](C)[C@H]1CC[C@H]2[C@@H]3CC[C@H]4C[C@@](C)(O)CC[C@]4(C)[C@H]3CC[C@]12C (stereo partly drawn)
Response: 75 to 150%

Prompt: Returns the measured activation at 1 µM for the input molecule. Input: CC(C)(O)CCC[C@H]1CC[C@H]2[C@@H]3CC[C@H]4C[C@@](C)(O)CC[C@]4(C)[C@H]3CC[C@]12C [Comparison compound 4, reference compound]
Response: 75 to 150%

Prompt: Returns the measured activation at 1 µM for the input molecule. Input: CC(CCC(C)(C)O)[C@H]1CC[C@H]2[C@@H]3CC[C@H]4C[C@@](C)(O)CC[C@]4(C)[C@H]3CC[C@]12C (stereo partly drawn) [Comparison compound 3, reference compound]
Response: 150 to 250%

Prompt: Returns the measured activation at 1 µM for the input molecule. Input: CCC(C)(O)CC[C@@H](C)[C@H]1CC[C@H]2[C@@H]3CC=C4C[C@@](C)(O)CC[C@]4(C)[C@H]3CC[C@]12C (stereo partly drawn)
Response: 150 to 250%

Prompt: Returns the measured activation at 1 µM for the input molecule. Input: CC(C)C(C)(O)CC[C@@H](C)[C@H]1CC[C@H]2[C@@H]3CC[C@H]4C[C@@](C)(O)CC[C@]4(C)[C@H]3CC[C@]12C (stereo partly drawn)
Response: > 250%

Prompt: Returns the measured activation at 1 µM for the input molecule. Input: C[C@H](CCC(C)(C)O)[C@H]1CC[C@H]2[C@@H]3CC=C4C[C@@H](O)CC[C@]4(C)[C@H]3CC[C@]12C (stereo in doubt) [Org-1, reference compound]
Response: 150 to 250%

---

Please respond with reported activation at 10 µM for every item in the list.
- EXPERIMENTAL TARGET: NMDA receptor (GRIN1/GRIN2A) (Homo sapiens, UniProt Q05586+Q12879)
- Sequence (Q12879 23-1464, other chains not shown): as above
- METHOD SUMMARY: NMDA potentiation, two electrode voltage clamp (TEVC) of Xenopus oocytes expressing NMDA receptor
- Format: cell-based
- APPLIED CONDITIONS: 10 μM compound, 3 μM Glutamate and Glycine

Prompt: Returns the measured activation at 10 µM for the input compound. Input: COCC[C@@](C)(O)CC[C@@H](C)[C@H]1CC[C@H]2[C@@H]3CC=C4C[C@@](C)(O)CC[C@]4(C)[C@H]3CC[C@]12C [Compound 10-23]
Response: 10 to 50%

Prompt: Returns the measured activation at 10 µM for the input compound. Input: CC[C@](C)(O)CC[C@@H](C)[C@H]1CC[C@H]2[C@@H]3CC=C4C[C@@](C)(O)CC[C@]4(C)[C@H]3CC[C@]12C [Compound 4-12]
Response: 50 to 100%

Prompt: Returns the measured activation at 10 µM for the input compound. Input: C#C[C@@](C)(O)CC[C@@H](C)[C@H]1CC[C@H]2[C@@H]3CC[C@H]4C[C@@](C)(O)CC[C@]4(C)[C@H]3CC[C@]12C [Compound 10-9]
Response: 10 to 50%

Prompt: Returns the measured activation at 10 µM for the input compound. Input: C[C@H](CC[C@@](C)(O)CCCO)[C@H]1CC[C@H]2[C@@H]3CC=C4C[C@@](C)(O)CC[C@]4(C)[C@H]3CC[C@]12C [Compound 6-9]
Response: 10 to 50%

Prompt: Returns the measured activation at 10 µM for the input compound. Input: COCCC(C)(O)CC[C@@H](C)[C@H]1CC[C@H]2[C@@H]3CC=C4C[C@@](C)(O)CC[C@]4(C)[C@H]3CC[C@]12C (some centres unmarked) [Compound 10-14]
Response: 50 to 100%

Prompt: Returns the measured activation at 10 µM for the input compound. Input: CCCC[C@@](C)(O)CC[C@@H](C)[C@H]1CC[C@H]2[C@@H]3CC=C4C[C@@](C)(O)CC[C@]4(C)[C@H]3CC[C@]12C [Compound 7-5]
Response: 10 to 50%

Prompt: Returns the measured activation at 10 µM for the input compound. Input: C=CCC(C)(O)CC[C@@H](C)[C@H]1CC[C@H]2[C@@H]3CC[C@H]4C[C@@](C)(O)CC[C@]4(C)[C@H]3CC[C@]12C (some centres unmarked) [Compound 6-6]
Response: 50 to 100%

Prompt: Returns the measured activation at 10 µM for the input compound. Input: C#CC(C)(O)CC[C@@H](C)[C@H]1CC[C@H]2[C@@H]3CC=C4C[C@@](C)(O)CC[C@]4(C)[C@H]3CC[C@]12C (some centres unmarked) [Compound 10-2]
Response: 50 to 100%

Prompt: Returns the measured activation at 10 µM for the input compound. Input: C[C@H](CC(F)(F)C(C)(C)O)[C@H]1CC[C@H]2[C@@H]3CC=C4C[C@@](C)(O)CC[C@]4(C)[C@H]3CC[C@]12C [Compound 11-19]
Response: 10 to 50%

Prompt: Returns the measured activation at 10 µM for the input compound. Input: C[C@H](CC[C@](C)(O)CCO)[C@H]1CC[C@H]2[C@@H]3CC[C@H]4C[C@@](C)(O)CC[C@]4(C)[C@H]3CC[C@]12C [Compound 10-18]
Response: 50 to 100%

Prompt: Returns the measured activation at 10 µM for the input compound. Input: CC[C@]1(O)CC[C@@]2(C)C(=CC[C@H]3[C@@H]4CC[C@H]([C@H](C)CC[C@@H](O)C(F)(F)F)[C@@]4(C)CC[C@@H]32)C1 [Compound 2-7]
Response: > 100%
